# MEASUREMENT_DESCRIPTION: Permeability across human Caco2 cells
# Format: ADME, cell-based
# PROTOCOL_CONDITIONS: Caco-2, read-out: permeability
ENDPOINT_NAME: Papp (×10⁻⁶ cm/s)

>  <SMILES_REPR>
O=C(NCC(=O)N1CC[C@H](N[C@H]2CC[C@@](O)(c3ccc(-c4ncccn4)cn3)CC2)C1)c1cccc(C(F)(F)F)c1

>  <RESULT>
3.1

$$$$

* * *

# TARGET_OR_SYSTEM: UniProt P05177
# Sequence (P05177 whole entry): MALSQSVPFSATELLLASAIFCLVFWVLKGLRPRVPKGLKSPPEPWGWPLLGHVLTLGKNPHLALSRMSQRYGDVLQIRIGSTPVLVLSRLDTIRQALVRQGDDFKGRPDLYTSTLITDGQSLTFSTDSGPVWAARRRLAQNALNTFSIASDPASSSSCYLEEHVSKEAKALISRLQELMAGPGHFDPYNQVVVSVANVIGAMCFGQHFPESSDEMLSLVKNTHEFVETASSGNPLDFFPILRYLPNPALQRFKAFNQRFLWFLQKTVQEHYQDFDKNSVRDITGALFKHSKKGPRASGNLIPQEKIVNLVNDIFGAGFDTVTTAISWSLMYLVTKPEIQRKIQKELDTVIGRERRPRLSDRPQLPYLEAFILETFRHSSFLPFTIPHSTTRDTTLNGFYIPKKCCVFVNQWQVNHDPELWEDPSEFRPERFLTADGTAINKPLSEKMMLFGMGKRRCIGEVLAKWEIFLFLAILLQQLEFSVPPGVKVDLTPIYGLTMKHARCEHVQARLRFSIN

>  <SMILES_REPR>
O=C(NCC(=O)N1CC[C@H](N[C@H]2CC[C@@](O)(c3ccc(-c4ncccn4)cn3)CC2)C1)c1cccc(C(F)(F)F)c1

>  <IC50>
> 30 µM

$$$$
